Reference source for all entries: patent US4511568A

- TEST_PROTOCOL: approximate oral LD50 in the rat
- SETTINGS: in vivo
RECORDED_METRIC: LD50

| MOLECULE | RECORDED_METRIC | REPORTED |
| --- | --- | --- |
| CCCCCn1ncc2c(N)c3c(nc21)CN(CCC)C3=O [Example 5] | LD50 | > 800 mg/kg |
